test: in vitro; settings: C57BL/6, mouse, Selective Index (SI) CC50/EC50 Ent/T. c
Reported Endpoint: selectivity ratio

[[record]]
smiles_record = "O=C(/C=C/c1ccccc1)c1ccccc1"
reported_endpoint = "selectivity ratio"
observed_result = "> 5.1"


----------
test system: C. elegans; conditions: Table S2, C. elegans SS assay, 110 μM, 0 h, averages of 4 data points
Would you please tag the item condition met when its Percentage of motility inhibition 0 h is 10% or above, and condition not met when it is below?

[[record]]
molecule = "COc1cc(OC)c2c(=O)cc(-c3ccc(O)c(O)c3)oc2c1 [5,7‐Dimethoxyluteolin]"
class_assignment = "condition met"

[[record]]
molecule = "Cl.c1cc2c(c3c1CC1c4cc5c(cc4CCN1C3)OCO5)OCO2 (racemic) [(±)‐Stylopine (hydrochloride)]"
class_assignment = "condition not met"

[[record]]
molecule = "C[C@@H]1O[C@@H](c2c(O)c([C@@H]3O[C@H](CO)[C@@H](O)[C@H](O)[C@H]3O)c3oc(-c4ccc(O)cc4)cc(=O)c3c2O)[C@H](O)[C@H](O)[C@H]1O [Isoviolanthin]"
class_assignment = "condition met"

[[record]]
molecule = "CC(=O)[O-].CC(=O)[O-].O.O.O.O.[Mg+2] [Magnesium acetate tetrahydrate]"
class_assignment = "condition not met"

[[record]]
molecule = "O=C1N[C@@H](Cc2ccc(O)cc2)C(=O)N2CCC[C@@H]12 [Maculosin]"
class_assignment = "condition not met"

[[record]]
molecule = "Oc1ccc([C@H]2Oc3cc(O)cc(O)c3C[C@H]2O)cc1 [(‐)‐Epiafzelechin]"
class_assignment = "condition met"

[[record]]
molecule = "O=C(N[C@@H](c1ccccc1)[C@@H](O)C(=O)O)c1ccccc1 [N‐Benzoyl‐(2R,3S)‐3‐phenylisoserine]"
class_assignment = "condition met"


----------
system: C. elegans; details: Table S2, C. elegans SS assay, 110 μM, 0 h, averages of 4 data points
Catalogue of Percentage of motility inhibition 0 h readings, one per entry.
Reported Endpoint: Percentage of motility inhibition 0 h (%)

[[record]]
molecule = "O=C(O)C1=CO[C@@H](O[C@@H]2O[C@H](CO)[C@@H](O)[C@H](O)[C@H]2O)[C@@H]2C(CO)=C[C@H](O)[C@H]12"
reported_endpoint = "Percentage of motility inhibition 0 h"
unit_string = "%"
observed_result = 0

[[record]]
molecule = "NC[C@@H]1O[C@H](O[C@H]2[C@@H](O)[C@H](O[C@@H]3[C@@H](O)[C@H](N)C[C@H](N)[C@H]3O[C@H]3O[C@H](CN)[C@@H](O)[C@H](O)[C@H]3N)O[C@@H]2CO)[C@H](N)[C@@H](O)[C@@H]1O.O=S(=O)(O)O [Neomycin (sulfate)]"
reported_endpoint = "Percentage of motility inhibition 0 h"
unit_string = "%"
observed_result = 21

[[record]]
molecule = "N[C@@H](CCC(=O)O)C(=O)[O-].[Na+] [L-Glutamic acid (monosodium salt)]"
reported_endpoint = "Percentage of motility inhibition 0 h"
unit_string = "%"
observed_result = 1

[[record]]
molecule = "C/C=C1\\C[C@@H](C)[C@](O)(CO)C(=O)OCC2=CCN3CC[C@@H](OC1=O)[C@@H]23"
reported_endpoint = "Percentage of motility inhibition 0 h"
unit_string = "%"
observed_result = 31

[[record]]
molecule = "CN1[C@@H]2CC[C@H]1CC(OC(=O)[C@H](CO)c1ccccc1)C2.CN1[C@@H]2CC[C@H]1CC(OC(=O)[C@H](CO)c1ccccc1)C2.O=S(=O)(O)O (stereo partly drawn) [L‐Hyoscyamine (sulfate)]"
reported_endpoint = "Percentage of motility inhibition 0 h"
unit_string = "%"
observed_result = 18

[[record]]
molecule = "CN[C@H](CC(C)C)C(=O)N[C@H]1C(=O)N[C@@H](CC(N)=O)C(=O)N[C@H]2C(=O)N[C@H]3C(=O)N[C@H](C(=O)N[C@H](C(=O)O)c4cc(O)cc(O)c4-c4cc3ccc4O)[C@H](O[C@H]3C[C@](C)(N)[C@@H](O)[C@H](C)O3)c3ccc(c(Cl)c3)Oc3cc2cc(c3O[C@@H]2O[C@H](CO)[C@@H](O)[C@H](O)[C@H]2O[C@H]2C[C@](C)(NCc3ccc(-c4ccc(Cl)cc4)cc3)[C@@H](O)[C@H](C)O2)Oc2ccc(cc2Cl)[C@H]1O.O=P(O)(O)O.O=P(O)(O)O [Oritavancin (diphosphate)]"
reported_endpoint = "Percentage of motility inhibition 0 h"
unit_string = "%"
observed_result = 34

[[record]]
molecule = "O=C([O-])c1cc(/N=N/c2ccc(O)c(C(=O)[O-])c2)ccc1O.[Na+].[Na+] [Olsalazine (Disodium)]"
reported_endpoint = "Percentage of motility inhibition 0 h"
unit_string = "%"
observed_result = 6

[[record]]
molecule = "CCCCCCCCCCCCCCCCCCCCCCO"
reported_endpoint = "Percentage of motility inhibition 0 h"
unit_string = "%"
observed_result = 7

[[record]]
molecule = "CC(C)(O[C@@H]1O[C@H](CO)[C@@H](O)[C@H](O)[C@H]1O)[C@@H]1CC[C@](C)([C@H]2[C@@H](O)C[C@@]3(C)[C@@H]4C[C@H](O)[C@H]5C(C)(C)[C@@H](O[C@@H]6OC[C@@H](O)[C@H](O)[C@H]6O)CC[C@@]56C[C@@]46CC[C@]23C)O1 [Isoastragaloside IV]"
reported_endpoint = "Percentage of motility inhibition 0 h"
unit_string = "%"
observed_result = 0

[[record]]
molecule = "COc1ccc([C@@H]2CC(=O)c3c(O)cc(O[C@@H]4O[C@H](CO)[C@@H](O)[C@H](O)[C@H]4O)cc3O2)cc1O [Hesperetin 7‐O‐glucoside]"
reported_endpoint = "Percentage of motility inhibition 0 h"
unit_string = "%"
observed_result = 16

[[record]]
molecule = "CC(C)OC(=O)OCOP(=O)(CO[C@H](C)Cn1cnc2c(N)ncnc21)OCOC(=O)OC(C)C"
reported_endpoint = "Percentage of motility inhibition 0 h"
unit_string = "%"
observed_result = 23

[[record]]
molecule = "C/C1=C\\[C@@H]2[C@H](C/C=C(/CO)[C@@H](O)[C@@H]3[C@@H](O)[C@@H](C)C[C@]3(O)C1=O)C2(C)C [17-Hydroxyisolathyrol]"
reported_endpoint = "Percentage of motility inhibition 0 h"
unit_string = "%"
observed_result = 13

[[record]]
molecule = "Cl.Cl.Cn1cncc1CCN [3‐Methylhistamine (dihydrochloride)]"
reported_endpoint = "Percentage of motility inhibition 0 h"
unit_string = "%"
observed_result = 4

[[record]]
molecule = "C=C1C(=O)O[C@@H]2[C@H]3C(CO)=CC(=O)C3=C(C)C[C@H](OC(=O)Cc3ccc(O)cc3)[C@@H]12"
reported_endpoint = "Percentage of motility inhibition 0 h"
unit_string = "%"
observed_result = 7

[[record]]
molecule = "COC1=CC(=O)OC(/C=C/c2ccccc2)C1 (single isomer, unassigned; (+)) [(+)-Kavain]"
reported_endpoint = "Percentage of motility inhibition 0 h"
unit_string = "%"
observed_result = 5

[[record]]
molecule = "C[N+]1(C)CCC[C@H]1C(=O)[O-] [Stachydrine]"
reported_endpoint = "Percentage of motility inhibition 0 h"
unit_string = "%"
observed_result = 0

[[record]]
molecule = "Cl.Cl.NCCc1c[nH]cn1 [Histamine (dihydrochloride)]"
reported_endpoint = "Percentage of motility inhibition 0 h"
unit_string = "%"
observed_result = 0

[[record]]
molecule = "CC(C)OC(=O)[C@H](C)N[P@](=O)(CO[C@H](C)Cn1cnc2c(N)ncnc21)Oc1ccccc1.O=C(O)/C=C/C(=O)O [GS‐7340 (fumarate)]"
reported_endpoint = "Percentage of motility inhibition 0 h"
unit_string = "%"
observed_result = 20

[[record]]
molecule = "CC[C@H]1CN2CCc3cc(OC)c(OC)cc3[C@@H]2C[C@@H]1C[C@H]1NCCc2cc(OC)c(OC)cc21.Cl.Cl.O [Emetine (dihydrochloride hydrate)]"
reported_endpoint = "Percentage of motility inhibition 0 h"
unit_string = "%"
observed_result = 52

[[record]]
molecule = "COc1ccc(-c2oc3c(CC=C(C)C)c(O)cc(O)c3c(=O)c2O[C@@H]2O[C@@H](C)[C@H](O)[C@@H](O)[C@H]2O[C@@H]2O[C@H](CO)[C@@H](O)[C@H](O)[C@H]2O)cc1 [Sagittatoside A]"
reported_endpoint = "Percentage of motility inhibition 0 h"
unit_string = "%"
observed_result = 43

[[record]]
molecule = "CN[C@@H]1[C@@H](O)[C@@H](O[C@@H]2[C@@H](O)[C@H](O[C@H]3OC(CN)=CC[C@H]3N)[C@@H](N)C[C@H]2N)OC[C@]1(C)O.CN[C@@H]1[C@@H](O)[C@@H](O[C@@H]2[C@@H](O)[C@H](O[C@H]3OC(CN)=CC[C@H]3N)[C@@H](N)C[C@H]2N)OC[C@]1(C)O.O=S(=O)(O)O.O=S(=O)(O)O.O=S(=O)(O)O.O=S(=O)(O)O.O=S(=O)(O)O [Sisomicin (sulfate)]"
reported_endpoint = "Percentage of motility inhibition 0 h"
unit_string = "%"
observed_result = 2


From: paper PMC11855827
